Source of measurements: patent US11208400B2

Subject Of Test: human Npt2a (Homo sapiens, UniProt Q06495)
Construct: expressed in transfected cells
Sequence (Q06495 whole entry): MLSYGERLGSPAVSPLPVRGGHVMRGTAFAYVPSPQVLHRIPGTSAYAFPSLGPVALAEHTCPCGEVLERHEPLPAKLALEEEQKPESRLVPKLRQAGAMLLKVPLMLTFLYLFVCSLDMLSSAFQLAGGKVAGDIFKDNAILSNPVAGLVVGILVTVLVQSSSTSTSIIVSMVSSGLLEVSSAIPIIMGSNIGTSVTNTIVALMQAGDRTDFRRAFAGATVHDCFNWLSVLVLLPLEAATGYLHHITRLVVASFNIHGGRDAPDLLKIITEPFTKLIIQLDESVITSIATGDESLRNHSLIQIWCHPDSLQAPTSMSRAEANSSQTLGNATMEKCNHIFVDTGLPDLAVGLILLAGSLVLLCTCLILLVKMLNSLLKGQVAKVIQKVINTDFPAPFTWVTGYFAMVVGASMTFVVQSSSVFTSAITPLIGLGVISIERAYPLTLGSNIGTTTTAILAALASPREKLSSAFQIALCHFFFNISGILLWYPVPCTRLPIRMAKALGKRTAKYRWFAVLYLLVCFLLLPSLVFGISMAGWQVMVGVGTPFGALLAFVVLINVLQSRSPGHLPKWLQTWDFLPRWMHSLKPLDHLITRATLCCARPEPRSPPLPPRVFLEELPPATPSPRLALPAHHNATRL
Assay Details: Npt2a activity cell based assay, membrane potential dye, CHO T-REx hNpt2a cells
Reported Conditions: doxycycline-induced, depolarization by sodium phosphate influx, average or median values if tested more than once
// classify: if (IC50 < 90 nM) true (1) else false (0)

Qu. Problem: For the compound CCc1c(Nc2cc(-n3nc(C)c(CN4CC(F)C4)c3C)ncn2)nn(C)c1-c1ccc(F)cc1 [Example 296] , is IC50 under 90 nM?
Ans. false (0)

Qu. Problem: For the compound Cc1c(-c2ccc(C#N)cc2)nn(C)c1Nc1cc(-n2[nH]c3c(c2=O)CCCC3)ncn1 [Example 472] , is IC50 under 90 nM?
Ans. false (0)

Qu. Problem: For the compound CCOC(=O)c1c(C)nn(-c2cc(Nc3c(C)c(-c4ccc(F)cc4)nn3CCOC)ncn2)c1C [Example 528] , is IC50 under 90 nM?
Ans. true (1)

Qu. Problem: For the compound CCc1c(Nc2cc(-n3nc(C)cc3C)ncn2)nn(C)c1-c1ccc(F)cc1 [Example 1] , is IC50 under 90 nM?
Ans. true (1)

Qu. Problem: For the compound Cc1cc(C(F)F)n(-c2cc(Nc3c(C)nn(-c4ccc(F)cc4)c3C)ncn2)n1 [Example 93] , is IC50 under 90 nM?
Ans. true (1)

Qu. Problem: For the compound Cc1nn(-c2cc(Nc3c(C)c(C45C6C7C4C4C5C6C74C#N)nn3CC3CC3)ncn2)c(C)c1Cl (centres unmarked) [Example 513] , is IC50 under 90 nM?
Ans. true (1)

---

Subject Of Test: UniProt Q06495
Assay Details: Npt2a activity cell based assay, membrane potential dye, CHO T-REx hNpt2a cells
Reported Conditions: doxycycline-induced, depolarization by sodium phosphate influx, average or median values if tested more than once
Property Label: log10(IC50) (log10 of the value in nM)
Recall that a logarithmic scale is used here: each number is log10 of IC50 in nM.

Qu. Using the record for Cc1nn(-c2cc(Nc3nn(C)c(-c4ccc(F)cc4)c3Cl)ncn2)c(C)c1C1(O)CC1 [Example 357] , report its log10(IC50).
Ans. 1.51

Qu. Using the record for CCOC(=O)c1c(C)nn(-c2cc(Nc3c(C)c(-c4ccc(F)cc4)nn3CC3CC3)ncn2)c1C [Example 152] , report its log10(IC50).
Ans. 0.78

Qu. Using the record for Cc1nn(-c2cc(Nc3nn(C)c(-c4ccc(F)cc4)c3C)ncn2)c(C)c1F [Example 267] , report its log10(IC50).
Ans. 1.43

Qu. Using the record for Cc1cc(C)n(-c2cc(Nc3nn(C)c(-c4ccc(F)cc4)c3C#N)ncn2)n1 [Example 23] , report its log10(IC50).
Ans. 2.50

Qu. Using the record for Cc1nn(-c2cc(Nc3c(C)c(-c4ccc(F)cc4)nn3CC3CC3)ncn2)c(C)c1CO [Example 282] , report its log10(IC50).
Ans. 1.86

Qu. Using the record for CCc1c(Nc2cc(-n3nc(C)c(C(=O)N4CCCCC4)c3C)ncn2)nn(C)c1-c1ccc(F)cc1 [Example 105] , report its log10(IC50).
Ans. 2.37

Qu. Using the record for CC(=O)c1c(C)nn(-c2cc(Nc3c(C)c(-c4ccc(F)cc4)nn3CC3CC3)ncn2)c1C [Example 502] , report its log10(IC50).
Ans. 0.70

Qu. Using the record for COc1c(C)nn(-c2cc(Nc3nn(C)c(-c4ccc(F)cc4)c3C)ncn2)c1C [Example 434] , report its log10(IC50).
Ans. 0.85
